target: PD-1/PD-L1 complex (Homo sapiens); construct: purchased cis-bio; assay: HTRF assay of PD-1/PD-L1 complex inhibition (cis-bio kit); assay type: binding; settings: 1 h; inhibitor 0.5 µM; scouting mode; 5 nM PD-L1, 50 nM PD-1; read-out: HTRF [%] (percentage of dissociated PD-1/PD-L1 complex)
Quantity: inhibition at 0.5 µM (%)
Give the value in % but do not write % after it.

Use these answered entries as a reference point.
COc1cc(CNCCO)ccc1OCc1ccc(-c2cccc(-c3ccc(COc4ccc(CNCCO)cc4OC)cc3C)c2C)c(C)c1 | 86.1
COc1cccc(CNCCNC(C)=O)c1OCc1ccccc1-c1cc(C)cc(-c2ccccc2COc2c(CNCCNC(C)=O)cccc2OC)c1 | 84.3
COc1cc(-c2cccc(-c3ccc(COc4ccc(CNCCNC(C)=O)cc4OC)c(OC)c3)c2C)ccc1COc1ccc(CNCCNC(C)=O)cc1OC | 72.5

q: Notebook entry, PD-1/PD-L1 complex (Homo sapiens) assay: inhibition at 0.5 µM of COc1cc(CNC(CO)CO)ccc1OCc1ccc(-c2cccc(-c3ccc(COc4ccc(CNC(CO)CO)cc4OC)c(C)c3)c2C)cc1C = ?
a: 94.5

q: Notebook entry, PD-1/PD-L1 complex (Homo sapiens) assay: inhibition at 0.5 µM of CC(=O)NCCNCc1cc(F)c(OCc2ccc(-c3cccc(-c4ccc(COc5cc(F)c(CNCCNC(C)=O)cc5F)c(C)c4)c3C)cc2C)cc1F = ?
a: 84.1

q: Notebook entry, PD-1/PD-L1 complex (Homo sapiens) assay: inhibition at 0.5 µM of COc1cc(-c2cccc(-c3ccc(COc4ccc(CNCCO)cc4OC)c(OC)c3)c2C)ccc1COc1ccc(CNCCO)cc1OC = ?
a: 60.9

q: Notebook entry, PD-1/PD-L1 complex (Homo sapiens) assay: inhibition at 0.5 µM of CC(=O)NCCNCc1cc(F)c(OCc2cccc(-c3cc(C)cc(-c4cccc(COc5cc(F)c(CNCCNC(C)=O)cc5F)c4C)c3)c2C)cc1F = ?
a: 85.7

###

molecular target: PD-1/PD-L1 complex (Homo sapiens, UniProt Q9NZQ7); construct: purchased cis-bio; assay: HTRF assay of PD-1/PD-L1 complex inhibition (cis-bio kit); format: binding; details: 1 h; inhibitor 5 µM; scouting mode; 5 nM PD-L1, 50 nM PD-1; read-out: HTRF [%] (percentage of dissociated PD-1/PD-L1 complex)
Sequence (Q9NZQ7 19-238 limits assumed, one chain of several): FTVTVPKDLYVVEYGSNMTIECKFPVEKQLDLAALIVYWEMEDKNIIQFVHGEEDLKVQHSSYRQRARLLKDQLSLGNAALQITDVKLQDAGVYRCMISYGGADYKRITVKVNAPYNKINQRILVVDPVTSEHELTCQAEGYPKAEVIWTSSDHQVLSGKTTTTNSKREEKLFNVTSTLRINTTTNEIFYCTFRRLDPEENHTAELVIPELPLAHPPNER
Quantity: inhibition at 5 µM (%)
Give the value in % but do not write % after it.

Use these answered entries as a reference point.
Cc1c(-c2cccc(COc3cccc(CNCCO)c3Br)c2)cccc1-c1cccc(COc2cccc(CNCCO)c2Br)c1 | 23
CC(=O)NCCNCc1cccc(OCc2cccc(-c3cc(C)cc(-c4cccc(COc5cccc(CNCCNC(C)=O)c5)c4F)c3)c2F)c1 | 22.5
COc1cccc(CNCCO)c1OCc1cccc(-c2cccc(-c3cccc(COc4c(CNCCO)cccc4OC)c3)c2C)c1 | 61.1

Below: the item to evaluate.
q: Consider the molecule COc1cc(-c2cc(C)cc(-c3ccc(COc4c(CNCCNC(C)=O)cccc4OC)c(OC)c3)c2)ccc1COc1c(CNCCNC(C)=O)cccc1OC and give its measured inhibition at 5 µM.
a: 59.2

###

target: PD-1/PD-L1 complex (Homo sapiens); construct: purchased cis-bio; assay: HTRF assay of PD-1/PD-L1 complex inhibition (cis-bio kit); type: binding; conditions: 1 h; inhibitor 5 µM; scouting mode; 5 nM PD-L1, 50 nM PD-1; read-out: HTRF [%] (percentage of dissociated PD-1/PD-L1 complex)
Think of 50% as a floor: if inhibition at 5 µM stands on it or above, it is t; beneath it, f.

q: Test whether the compound COc1cccc(CNCCNC(C)=O)c1OCc1cccc(-c2cccc(-c3cccc(COc4c(CNCCNC(C)=O)cccc4OC)c3)c2C)c1 records inhibition at 5 µM of 50% or higher.
a: t

q: Test whether the compound CC(=O)NCCNCc1cccc(OCc2cccc(-c3cc(C)cc(-c4cccc(COc5cccc(CNCCNC(C)=O)c5Br)c4C)c3)c2C)c1Br records inhibition at 5 µM of 50% or higher.
a: t

q: Test whether the compound COc1cc(CNCCNC(C)=O)ccc1OCc1ccc(-c2cccc(-c3ccc(COc4ccc(CNCCNC(C)=O)cc4OC)cc3C)c2C)c(C)c1 records inhibition at 5 µM of 50% or higher.
a: t

q: Test whether the compound COc1cc(CNC(CO)CO)ccc1OCc1ccc(-c2cccc(-c3ccc(COc4ccc(CNC(CO)CO)cc4OC)c(C)c3)c2C)cc1C records inhibition at 5 µM of 50% or higher.
a: t

q: Test whether the compound COc1cc(CNCCO)ccc1OCc1ccc(-c2cccc(-c3ccc(COc4ccc(CNCCO)cc4OC)cc3C)c2C)c(C)c1 records inhibition at 5 µM of 50% or higher.
a: f

q: Test whether the compound CC(=O)NCCNCc1cccc(OCc2cccc(-c3cc(C)cc(-c4cccc(COc5cccc(CNCCNC(C)=O)c5)c4)c3)c2)c1 records inhibition at 5 µM of 50% or higher.
a: t

q: Test whether the compound Cc1cc(-c2cccc(-c3ccc(COc4cc(F)c(CNCCO)cc4F)c(C)c3)c2C)ccc1COc1cc(F)c(CNCCO)cc1F records inhibition at 5 µM of 50% or higher.
a: f

q: Test whether the compound COc1cc(-c2cccc(-c3ccc(COc4ccc(CNCCNC(C)=O)cc4OC)c(OC)c3)c2C)ccc1COc1ccc(CNCCNC(C)=O)cc1OC records inhibition at 5 µM of 50% or higher.
a: f

###

target: PD-1/PD-L1 complex (Homo sapiens, UniProt Q9NZQ7); construct: purchased cis-bio; test: HTRF assay of PD-1/PD-L1 complex inhibition (cis-bio kit); assay type: binding; conditions: 1 h; inhibitor 5 µM; scouting mode; 5 nM PD-L1, 50 nM PD-1; read-out: HTRF [%] (percentage of dissociated PD-1/PD-L1 complex)
Quantity: inhibition at 5 µM (%)
Give the value in % but do not write % after it.

Use these answered entries as a reference point.
COc1cccc(CNCCNC(C)=O)c1OCc1ccccc1-c1cc(C)cc(-c2ccccc2COc2c(CNCCNC(C)=O)cccc2OC)c1 | 78.4
CC(=O)NCCNCc1cc(F)c(OCc2ccc(-c3cccc(-c4ccc(COc5cc(F)c(CNCCNC(C)=O)cc5F)c(C)c4)c3C)cc2C)cc1F | 69

Below: the item to evaluate.
q: Consider the molecule CC(=O)NCCNCc1cc(F)c(OCc2cccc(-c3cc(C)cc(-c4cccc(COc5cc(F)c(CNCCNC(C)=O)cc5F)c4C)c3)c2C)cc1F and give its measured inhibition at 5 µM.
a: 28.2

###

biological target: PD-1/PD-L1 complex (Homo sapiens, UniProt Q9NZQ7); construct: purchased cis-bio; test: HTRF assay of PD-1/PD-L1 complex inhibition (cis-bio kit); assay type: binding; settings: 1 h; inhibitor 0.5 µM; scouting mode; 5 nM PD-L1, 50 nM PD-1; read-out: HTRF [%] (percentage of dissociated PD-1/PD-L1 complex)
Think of 90% as a floor: if inhibition at 0.5 µM stands on it or above, it is Yes; beneath it, No.

CC(=O)NCCNCc1cccc(OCc2ccc(-c3cccc(-c4ccc(COc5cccc(CNCCNC(C)=O)c5Br)cc4)c3C)cc2)c1Br [Compound 7j] | No

q: Test whether the compound Cc1cc(-c2cccc(-c3ccc(COc4cc(F)c(CNCCO)cc4F)c(C)c3)c2C)ccc1COc1cc(F)c(CNCCO)cc1F [Compound 7i] records inhibition at 0.5 µM of 90% or higher.
a: No

q: Test whether the compound Cc1c(-c2cccc(COc3cccc(CNCCO)c3Br)c2)cccc1-c1cccc(COc2cccc(CNCCO)c2Br)c1 [Compound 8a] records inhibition at 0.5 µM of 90% or higher.
a: Yes

###

target: PD-1/PD-L1 complex (Homo sapiens, UniProt Q9NZQ7); construct: purchased cis-bio; assay: HTRF assay of PD-1/PD-L1 complex inhibition (cis-bio kit); format: binding; settings: 1 h; inhibitor 5 µM; scouting mode; 5 nM PD-L1, 50 nM PD-1; read-out: HTRF [%] (percentage of dissociated PD-1/PD-L1 complex)
In this section, each of the compounds is paired with its reported inhibition at 5 µM.
Give the value in % but do not write % after it.

Use these answered entries as a reference point.
COc1cc(-c2cccc(-c3ccc(COc4ccc(CNCCO)cc4OC)c(OC)c3)c2C)ccc1COc1ccc(CNCCO)cc1OC [Compound 7b] | 11.9
CC(=O)NCCNCc1cccc(OCc2cccc(-c3cc(C)cc(-c4cccc(COc5cccc(CNCCNC(C)=O)c5Br)c4)c3)c2)c1Br [Compound 4c] | 70.8
COc1cc(CNCCNC(C)=O)ccc1OCc1ccc(-c2cccc(-c3ccc(COc4ccc(CNCCNC(C)=O)cc4OC)c(C)c3)c2C)cc1C [Compound 7e] | 55.3
COc1cc(CNCCO)ccc1OCc1ccc(-c2cccc(-c3ccc(COc4ccc(CNCCO)cc4OC)c(C)c3)c2C)cc1C [Compound 7f] | 46.4

q: Consider the compound CC(=O)NCCNCc1cccc(OCc2ccc(-c3cccc(-c4ccc(COc5cccc(CNCCNC(C)=O)c5Br)cc4)c3C)cc2)c1Br [Compound 7j] and give its measured inhibition at 5 µM.
a: 11.1
